assayed-system: Oatp1b2 (Mus musculus)
Sequence (Q9JJL3 1-689): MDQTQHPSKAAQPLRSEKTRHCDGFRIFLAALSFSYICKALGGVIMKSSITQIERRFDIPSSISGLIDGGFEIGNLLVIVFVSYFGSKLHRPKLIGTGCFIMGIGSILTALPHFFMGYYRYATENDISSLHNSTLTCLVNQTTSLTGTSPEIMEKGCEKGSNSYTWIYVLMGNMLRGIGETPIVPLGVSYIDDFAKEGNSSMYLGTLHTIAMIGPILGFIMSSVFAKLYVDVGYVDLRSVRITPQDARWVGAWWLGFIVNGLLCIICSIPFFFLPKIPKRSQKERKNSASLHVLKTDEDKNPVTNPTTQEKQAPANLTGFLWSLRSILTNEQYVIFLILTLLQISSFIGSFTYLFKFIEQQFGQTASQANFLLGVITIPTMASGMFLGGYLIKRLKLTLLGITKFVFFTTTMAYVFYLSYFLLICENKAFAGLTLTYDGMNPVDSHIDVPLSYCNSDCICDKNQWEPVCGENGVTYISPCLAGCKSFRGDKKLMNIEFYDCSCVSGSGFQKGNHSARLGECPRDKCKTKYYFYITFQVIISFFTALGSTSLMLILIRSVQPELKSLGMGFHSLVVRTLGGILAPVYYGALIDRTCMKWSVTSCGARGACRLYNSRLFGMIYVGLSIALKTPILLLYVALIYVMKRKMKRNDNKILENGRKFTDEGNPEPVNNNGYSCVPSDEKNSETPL
assay-method-text: Untargeted metabolomics of plasma from untreated wild-type and Oatp1b2(−/−) mice
cond: plasma of untreated wild-type mice; raw area counts rescaled to median = 1
Counter-ions that a name gives are not always drawn.
Can you tell me Mean value WT for the items I'm about to list?

Dear colleague, I am looking for the recorded Mean value WT of the following compound: C[C@H](CCC(=O)NCCS(=O)(=O)O)[C@H]1CC[C@H]2[C@@H]3CC[C@@H]4C[C@H](OS(=O)(=O)O)CC[C@]4(C)[C@H]3C[C@H](O)[C@]12C [taurodeoxycholic acid 3-sulfate]
.694

Could you tell me which Mean value WT is on file for CCCCCCCCCCCCCCC(=O)O[C@H](CC(=O)[O-])C[N+](C)(C)C [pentadecanoylcarnitine (C15)] ?
.723

Fill in the blank: the reported Mean value WT of O=C(O)CCCCCCCCCCCCCCCCC(=O)O [octadecanedioate (C18-DC)] is ____.
.916

Could you tell me which Mean value WT is on file for C[C@H](CCC(=O)NCCS(=O)(=O)O)[C@H]1CC[C@H]2[C@@H]3CC[C@@H]4C[C@H](OS(=O)(=O)O)CC[C@]4(C)[C@H]3CC[C@]12C [taurolithocholate 3-sulfate] ?
.425

Form field: reported Mean value WT of C[C@H](CCC(=O)O)[C@H]1CC[C@H]2[C@@H]3C[C@H](O)[C@@H]4C[C@H](O)CC[C@]4(C)[C@H]3CC[C@]12C [hyodeoxycholate]
.269

Given the compound C[C@H](CCC(=O)O)[C@H]1CC[C@H]2[C@@H]3[C@H](O)C[C@@H]4C[C@H](O)CC[C@]4(C)[C@H]3CC[C@]12C [chenodeoxycholate] , what is its reported Mean value WT?
.585

Using the record for CCCCC/C=C\C/C=C\C/C=C\C/C=C\CCCC(=O)OC[C@@H](O)COP(=O)(O)O [1-arachidonoyl-GPA (20:4)] , report its Mean value WT.
.652

Consider the compound CSC[C@H](NC(=O)CC[C@H](N)C(=O)O)C(=O)NCC(=O)O [S-methylglutathione] and give its measured Mean value WT.
.931

Can you look up the measured Mean value WT of CC(C)CC(O)C(=O)O (stereo not drawn) [alpha-hydroxyisocaproate] for me?
.787

Record request: Mean value WT value, item O=C(O)[C@H]1O[C@@H](Oc2ccccc2)[C@H](O)[C@@H](O)[C@@H]1O [phenol glucuronide]
.684

Data request, read-out Mean value WT, for CC/C=C\C/C=C\C/C=C\C/C=C\C/C=C\C/C=C\CCC(=O)O[C@H](COC(=O)CCCCCCC/C=C\CCCCCCCC)COP(=O)([O-])OCC[N+](C)(C)C
.874

Request the reported Mean value WT associated with CCC(CO)C(=O)O (stereo not shown) [3-hydroxy-2-ethylpropionate]
.879

Which Mean value WT reading was recorded for the compound CCO[C@@H]1O[C@H](CO)[C@@H](O)[C@H](O)[C@H]1O [ethyl beta-glucopyranoside] ?
.826

Look at this compound and give its reported Mean value WT. CCCCCCCCCCCCCCC=COCC(O)COP(=O)([O-])OCC[N+](C)(C)C (stereo not shown) [1-(1-enyl-palmitoyl)-GPC (P-16:0)]
.795

Record request: Mean value WT value, item CC(C(=O)O)c1ccc(O)cc1 (stereo not shown) [2-(4-hydroxyphenyl)propionate]
.895

Any idea what Mean value WT was measured for C[N+]1(C)CCCC[C@H]1C(=O)[O-] [homostachydrine] ?
.915

State the recorded Mean value WT for this entry: COP(=O)(O)O [methylphosphate]
.848

I have this compound here, O=C1Cc2ccccc2N1 [indolin-2-one] , and I need its recorded Mean value WT.
.797

Look up Mean value WT: C/C=C(\C)C(=O)NCC(=O)O [tigloylglycine]
.883

Return reported Mean value WT; argument: Cc1ncc(CO)c(C=O)c1O [pyridoxal]
.868

# query: Mean value WT of entry CC(O)(CCO)CC(=O)O (stereo not shown) [mevalonate]
.925

Which value of Mean value WT has been reported for C[C@H](CCC(=O)O)[C@H]1CC[C@H]2[C@@H]3[C@H](O)[C@@H](O)[C@@H]4C[C@H](O)CC[C@]4(C)[C@H]3CC[C@]12C [alpha-muricholate] in the records?
.0600

Using the record for CCCCC/C=C\C/C=C\C/C=C\C/C=C\CCCC(=O)O[C@H](COC(=O)CCCCCCC/C=C\CCCCCCCC)COP(=O)(O)OC1C(O)C(O)C(O)C(O)C1O (stereo partly shown) [1-oleoyl-2-arachidonoyl-GPI (18:1/20:4)] , report its Mean value WT.
.681

Need Mean value WT, item CC(C)C(O)C(=O)O (stereo not drawn) [alpha-hydroxyisovalerate]
.850

Endpoint output: Mean value WT of CC(=O)N[C@@H](CCCCNC(N)=O)C(=O)O [N-acetylhomocitrulline] . Value?
.861

Recorded Mean value WT for C=CC1=C(C)/C(=C/c2[nH]c(Cc3[nH]c(/C=C4\NC(=O)C(C)=C4C=C)c(C)c3CCC(=O)O)c(CCC(=O)O)c2C)NC1=O [bilirubin (Z,Z)] , please?
.282

What measured Mean value WT goes with O=S(=O)(O)Oc1ccc(O)cc1 [hydroquinone sulfate] ?
.849

Which Mean value WT value is on record for CCCCCCCCCCCCCCCCC(N)=O [margaramide (17:0)] ?
.826

Request the reported Mean value WT associated with CCCCC/C=C\C/C=C\CCCCCCCC(=O)OC[C@@H](O)COP(=O)([O-])OCC[N+](C)(C)C [1-linoleoyl-GPC (18:2)]
.752

Find the recorded Mean value WT belonging to O=C(O)Cc1cn(C2O[C@H](CO)[C@@H](O)[C@H]2O)cn1 (stereo partly shown) [1-ribosyl-imidazoleacetate] and report it.
.818

Give the measured Mean value WT of NCCOP(=O)(O)OCC(O)CO (stereo not shown) [glycerophosphoethanolamine] .
.831

Any idea what Mean value WT was measured for CC(C)C(=O)O[C@H](CC(=O)[O-])C[N+](C)(C)C [isobutyrylcarnitine (C4)] ?
.817

Consider the compound shown here: O=C(O)CCc1ccccc1.O=C(O)CCc1ccccc1 [3-phenylpropionate (hydrocinnamate)] What is its recorded Mean value WT?
.855

Please report the recorded Mean value WT for CCCCC/C=C\C/C=C\C/C=C\C/C=C\CCCC(=O)O[C@H](COC(=O)CCCCCCC/C=C\C/C=C\CCCCC)COP(=O)([O-])OCC[N+](C)(C)C .
.846
